System: HS 578T breast
Test: NCI tumour cell line growth inhibition, 48 h
ASSAY METRIC: GI50

In the examples that follow, each entry is paired with its recorded GI50.
>  <COMPOUND>
Clc1ccc(-c2csc(Nc3cccc(-c4csc(-c5ccccc5)n4)c3)n2)cc1

>  <GI50>
20.6 µM

$$$$
>  <COMPOUND>
Cc1ccc(C(NC(=O)c2ccccc2)c2ccc3cccnc3c2O)cc1 (centres undefined)

>  <GI50>
1.25 µM

$$$$
>  <COMPOUND>
O=C(O)c1cn(C2CC2)c2cc(N3CCN(C(=O)Nc4nc(-c5ccccc5)cs4)CC3)c(F)cc2c1=O

>  <GI50>
0.861 µM

$$$$

Item under review: Nc1cc(O)ccc1N=Nc1ccc(-c2nc3ccccc3[nH]2)cc1 . Reported GI50?
72.1 µM

====

Tested on: OVCAR-4 ovarian
Assay: NCI tumour cell line growth inhibition, 48 h
ASSAY METRIC: TGI

Consider the worked cases shown below.
>  <COMPOUND>
COC(=O)C1OC2(CCCC3CC32)O[C@H]1C(=O)OC (stereo partly specified)

>  <VALUE OBSERVED>
> 100 µM

$$$$
>  <COMPOUND>
Cc1cc(S(=O)(=O)/N=C/N(C)C)c(SC(=O)c2ccc(Cl)cc2)cc1Cl

>  <VALUE OBSERVED>
> 100 µM

$$$$
>  <COMPOUND>
CC(=O)c1ccccc1NCC(=O)Nn1cnc2ccc(S(=O)(=O)Nc3ccccc3C(C)=O)cc2c1=O

>  <VALUE OBSERVED>
> 100 µM

$$$$
>  <COMPOUND>
C(=Nc1ccc(-c2nc3ccccc3[nH]2)cc1)c1ccc[nH]1

>  <VALUE OBSERVED>
> 100 µM

$$$$
>  <COMPOUND>
Nc1cc(O)ccc1N=Nc1ccc(-c2nc3ccccc3[nH]2)cc1

>  <VALUE OBSERVED>
> 100 µM

$$$$

Which TGI is listed for COC(=O)/C=C\C(C#N)(C#N)N=Cc1ccccc1 ?
13.5 µM

Give its TGI value. Item: CCOC(=O)c1c(C)n(Cc2ccccc2)c2c1cc(O)c1[nH]c(Cc3ccccc3)nc12
> 57.3 µM

Which TGI is listed for O=C(CCCCCC(=O)N1CC(CCl)c2ccc([N+](=O)[O-])cc21)N1CC(CCl)c2ccc([N+](=O)[O-])cc21 (stereo unspecified) ?
> 100 µM

What does the data say about its TGI? Entry: Cc1ccc(NC(=O)C2C(=O)N(c3ccc(C)c(C)c3)C(=O)/C2=N\NC(N)=O)cc1C (stereo unspecified)
> 100 µM

I am curious: what TGI value has been reported for O=[N+]([O-])c1ccc(Cl)c(C2CC(c3cccc4ccccc34)=Nc3ccccc3S2)c1 (stereo unspecified) ?
> 100 µM

Query (compound): Cc1ccc(-c2c3c(nn2-c2ccc(S(N)(=O)=O)cc2)-c2ccccc2C3)cc1 ; field requested: TGI
32.8 µM

Item COc1ccc(/C=C2\CCS(=O)(=O)c3ccccc3C2=O)cc1OC has what recorded TGI?
71.5 µM

May I ask what TGI has been recorded for O=C(c1ccccc1)n1cc(-c2ccccc2)c2c(=O)[nH]cnc21 ?
> 100 µM

Reported TGI for Cc1cccc(C(C)C)c1N1C(=O)C(=O)C(c2nc3ccccc3o2)C(=O)C1=O : what is it?
> 100 µM

What value of TGI has been recorded for this entry: FC(F)(F)c1ccc(-c2cnc(-n3cc(COCCN4CCCCC4)nn3)nc2NC2CCCCCC2)cc1
6.35 µM

// TGI lookup, key: CC1=NN(C(=O)CC(=O)Nc2ccccc2Cl)C(=O)C1N=Nc1ccc(S(=O)(=O)c2ccc(N=NC3C(=O)N(C(=O)CC(=O)Nc4ccccc4Cl)N=C3C)cc2)cc1 (stereo unspecified)
> 100 µM

Any idea what TGI was measured for Nc1ccccc1.[C-]#[O+].[C-]#[O+].[C-]#[O+].[C-]#[O+].[C-]#[O+].[Cr] ?
> 10 µM

Looking for the measured TGI of O=c1cc(-c2c[nH]c3ccccc23)[nH]c2cc3c(cc12)OCO3 , can you help?
> 100 µM

Using the record for CN(C)c1ccc(/C=C/c2ccc(/C=C/c3ccc(N(C)C)cc3)cc2)cc1 , report its TGI.
> 100 µM

Field request: TGI | item: C=C1c2nc3ccccc3n2C=C(c2ccc(C)cc2)N1c1ccc(C)cc1
> 100 µM

So what does the record say about TGI for CCCCCCNC(=O)CCC(NC(=O)c1ccc(N(C)Cc2cnc3nc(N)nc(N)c3n2)cc1)C(=O)NCCCCCC (stereo unspecified) ?
> 100 µM

Consider the compound Brc1ccc2[nH]cc(-c3nc(-c4c[nH]c5ncccc45)cs3)c2c1 and give its measured TGI.
20.8 µM

Can you share its TGI? I mean this compound: Cc1cc(Nc2nc(-c3cccnc3)nc3ccccc23)n[nH]1
> 100 µM

What value of TGI has been reported for the following compound? NC1=NC(c2ccc(Cl)cc2)N(c2ccc(S(N)(=O)=O)cc2)C(N)=N1 (stereo unspecified)
> 100 µM

Requested field: TGI. Item: O=c1oc2ccc([N+](=O)[O-])cc2c(Nc2ccc3c(c2)Sc2ccccc2O3)c1[N+](=O)[O-]
98.2 µM

====

Tested on: CAKI-1 renal
Test: NCI tumour cell line growth inhibition, 48 h
As shown below, each of these compounds has a reported TGI value.

Examples from the recorded data:
>  <COMPOUND>
CC1=NN(C(=O)CC(=O)Nc2ccccc2Cl)C(=O)C1N=Nc1ccc(S(=O)(=O)c2ccc(N=NC3C(=O)N(C(=O)CC(=O)Nc4ccccc4Cl)N=C3C)cc2)cc1 (stereo unspecified)

>  <TGI>
> 100 µM

$$$$
>  <COMPOUND>
CC1(C)C(=O)c2ccccc2OC1N1CCN(C2Oc3ccccc3C(=O)C2(C)C)CC1 (stereo unspecified)

>  <TGI>
> 100 µM

$$$$
>  <COMPOUND>
O=c1[nH]c(=O)n(C2CC(O)C(CO)O2)cc1NN=NCCCc1ccccc1 (stereo unspecified)

>  <TGI>
> 100 µM

$$$$
>  <COMPOUND>
C=CC(OC(C)=O)c1ccc(OC(=O)C(C)C)c(OC)c1 (stereo unspecified)

>  <TGI>
3.65 µM

$$$$
>  <COMPOUND>
Cc1cccc(C(C)C)c1N1C(=O)C(=O)C(c2nc3ccccc3o2)C(=O)C1=O

>  <TGI>
> 100 µM

$$$$

Query (compound): COc1cccc2c1-c1c(c3ccc([N+](=O)[O-])cc3c(=O)n1CCCN)C2=O ; field requested: TGI
62.7 µM

====

Test system: RXF 393 renal
Experiment: NCI tumour cell line growth inhibition, 48 h
Measured TGI values are reported for all entries that follow.

Consider the reported TGI for these molecules:
>  <MOLECULE>
Cc1cccc(C(C)C)c1N1C(=O)C(=O)C(c2nc3ccccc3o2)C(=O)C1=O

>  <TGI>
> 100 µM

$$$$
>  <MOLECULE>
Nc1c(O)cc(N=C2C(=O)C=CC=C2C(=O)O)c(O)c1C(=O)O

>  <TGI>
> 31.6 µM

$$$$
>  <MOLECULE>
O=C(c1ccccc1)n1cc(-c2ccccc2)c2c(=O)[nH]cnc21

>  <TGI>
> 100 µM

$$$$
>  <MOLECULE>
c1ccc(CN[C@]23C4C5CC6C7C5C2C7[C@@](NCc2ccccc2)(C64)N3Cc2ccccc2)cc1 (stereo not given in full)

>  <TGI>
> 100 µM

$$$$

Name the recorded TGI for CN(C)C(=Nc1nc(=[N+](C)C)ss1)N(C)C .
> 100 µM

====

Test system: DU-145 prostate
Experiment: NCI tumour cell line growth inhibition, 48 h
Measured TGI by item
I only need the number, in µM, no unit after it.

>  <MOLECULE>
CCN(Cc1ccc(F)cc1)c1ccc(CO)c(C)c1

>  <READOUT UNIT>
µM

>  <VALUE OBSERVED>
59.2

$$$$
>  <MOLECULE>
CC12CC3OC(=O)C1COC14OC5(C2C1=O)C(O)(CCC1C4CC2OC24CC=CC(=O)C14C)C(=O)OC35C (stereo not given)

>  <READOUT UNIT>
µM

>  <VALUE OBSERVED>
27.7

$$$$

Moving on to another molecule below.
Find the recorded TGI belonging to COc1cc2cc(C(=O)N3CC(CCl)c4c3cc(NC(=O)OCc3ccc([N+](=O)[O-])cc3)c3ccccc43)[nH]c2c(OC)c1OC (stereo not given) and report it.
18

====

System: TK-10 renal
Assay: NCI tumour cell line growth inhibition, 48 h
TGI reference

>  <COMPOUND>
COc1cc([C@@H]2c3cc4c(cc3[C@@H](Nc3ccccc3C(=O)c3ccccc3)[C@H]3COC(=O)[C@H]23)OCO4)cc(OC)c1OC

>  <MEASUREMENT TARGET>
TK-10 renal

>  <TGI>
> 100 µM

$$$$
>  <COMPOUND>
Clc1ccc(-c2csc(Nc3cccc(-c4csc(-c5ccccc5)n4)c3)n2)cc1

>  <MEASUREMENT TARGET>
TK-10 renal

>  <TGI>
> 50 µM

$$$$
>  <COMPOUND>
COC(=O)C1=C(OC(=O)/C=C/c2ccccc2)C(C(=O)OC)[C@@]2(O)[C@@H](C(=O)OC)[C@H](C)C[C@@H]1[C@@H]2C(=O)OC (stereo not given in full)

>  <MEASUREMENT TARGET>
TK-10 renal

>  <TGI>
> 100 µM

$$$$
>  <COMPOUND>
ON(Cc1ccccc1)C(=S)c1ccccc1

>  <MEASUREMENT TARGET>
TK-10 renal

>  <TGI>
> 100 µM

$$$$

Consider the record given below.
Requested read-out: TGI. Entry: C=CCc1cc(-c2cc(CC=C)c(O)c(CN(CC)CC)c2)cc(CN(CC)CC)c1O
> 100 µM
